The reported measurements were obtained from paper PMC13077603.

TARGET_UNDER_TEST: Human serum albumin (HSA) (Homo sapiens)
Sequence (P02768 25-609): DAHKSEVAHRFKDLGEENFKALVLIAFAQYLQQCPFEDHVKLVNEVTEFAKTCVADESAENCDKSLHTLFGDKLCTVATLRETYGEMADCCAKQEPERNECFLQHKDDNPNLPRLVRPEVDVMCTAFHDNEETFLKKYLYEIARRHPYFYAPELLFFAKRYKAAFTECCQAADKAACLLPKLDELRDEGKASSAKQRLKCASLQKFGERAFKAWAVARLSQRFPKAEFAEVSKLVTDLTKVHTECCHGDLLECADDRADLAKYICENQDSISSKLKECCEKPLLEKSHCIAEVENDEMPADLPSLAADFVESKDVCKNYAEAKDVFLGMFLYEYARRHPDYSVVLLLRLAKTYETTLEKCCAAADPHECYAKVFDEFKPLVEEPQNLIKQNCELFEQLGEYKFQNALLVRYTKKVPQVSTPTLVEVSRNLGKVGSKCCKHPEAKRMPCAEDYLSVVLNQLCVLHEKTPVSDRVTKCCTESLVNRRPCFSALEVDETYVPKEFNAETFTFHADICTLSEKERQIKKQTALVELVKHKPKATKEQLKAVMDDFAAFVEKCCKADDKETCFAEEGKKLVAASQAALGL
TEST_SUMMARY: Plasma protein binding (human serum albumin binding)
Type: in vitro ADME
CONDITION_INFO: human serum albumin, read-out: Plasma protein binding (PPB) (converted)
MEASURE_NAME: fraction unbound

Entry CCCN(Cc1ccc(-c2cn(CCF)nn2)cc1)c1nc(Cl)nc2c1ncn2[C@@H]1O[C@H](COP(=O)(O)CP(=O)(O)O)[C@@H](O)[C@H]1O [compound 1] ; assay system Human serum albumin (HSA) (Homo sapiens); fraction unbound recorded at < 0.01

###

TEST_SUMMARY: logD7.4 determination of radiotracers (PBS/octan-1-ol)
Format: physicochemical
CONDITION_INFO: octan-1-ol/PBS; PBS pH 7.4 / octan-1-ol, radiotracer
Description: The logD 7.4 values of both radiotracers were determined using a previously described method based on their distribution between phosphate‐buffered saline (PBS) and octan‐1‐ol. Triazole radiotracers (~400 kBq) in PBS buffer (10 µL, pH 7.4) were added to PBS buffer (590 µL, pH 7.4) and octan-1-ol (600 µL). […] Three samples were prepared, and two aliquots (á 100 µL) of both layers were measured in a gamma-counter 2480 Wizard2 (Perkin-Elmer, Waltham, USA). […]
MEASURE_NAME: logD
Lab note: record the figure alone, no unit after it.

Example results:
Notebook: CCCN(Cc1ccc(-c2cn(CC[18F])nn2)cc1)c1nc(Cl)nc2c1ncn2[C@@H]1O[C@H](COP(=O)(O)CP(=O)(O)O)[C@@H](O)[C@H]1O [[^18F]1] , logD read as -0.12

For this molecule ( Cn1c(=O)n([C@@H]2O[C@H](COP(=O)(O)CP(=O)(O)O)[C@@H](O)[C@H]2O)cc/c1=N/OCc1ccc(-c2cn(CCF)nn2)cc1 ), measured logD is 0.74

Just so you know, measured logD for Cn1c(=O)n([C@@H]2O[C@H](COP(=O)(O)CP(=O)(O)O)[C@@H](O)[C@H]2O)cc/c1=N/OCc1ccc(-c2cn(CC[18F])nn2)cc1 [[^18F]2] came out at 0.74

New cases:
// CCCN(Cc1ccc(-c2cn(CCF)nn2)cc1)c1nc(Cl)nc2c1ncn2[C@@H]1O[C@H](COP(=O)(O)CP(=O)(O)O)[C@@H](O)[C@H]1O : logD value = -0.12

###

TARGET_UNDER_TEST: Human serum albumin (HSA) (Homo sapiens)
TEST_SUMMARY: Plasma protein binding (human serum albumin binding)
Assay type: in vitro ADME
CONDITION_INFO: human serum albumin (HSA), read-out: Plasma protein binding (PPB) (converted)
MEASURE_NAME: fraction unbound
Number only, please.

Query Cn1c(=O)n([C@@H]2O[C@H](COP(=O)(O)CP(=O)(O)O)[C@@H](O)[C@H]2O)cc/c1=N/OCc1ccc(-c2cn(CCF)nn2)cc1 yields fraction unbound of 0.34

###

TARGET_UNDER_TEST: Soluble recombinant rat CD73 (Rattus norvegicus, UniProt P21588)
Sequence (P21588 29-551 limits assumed): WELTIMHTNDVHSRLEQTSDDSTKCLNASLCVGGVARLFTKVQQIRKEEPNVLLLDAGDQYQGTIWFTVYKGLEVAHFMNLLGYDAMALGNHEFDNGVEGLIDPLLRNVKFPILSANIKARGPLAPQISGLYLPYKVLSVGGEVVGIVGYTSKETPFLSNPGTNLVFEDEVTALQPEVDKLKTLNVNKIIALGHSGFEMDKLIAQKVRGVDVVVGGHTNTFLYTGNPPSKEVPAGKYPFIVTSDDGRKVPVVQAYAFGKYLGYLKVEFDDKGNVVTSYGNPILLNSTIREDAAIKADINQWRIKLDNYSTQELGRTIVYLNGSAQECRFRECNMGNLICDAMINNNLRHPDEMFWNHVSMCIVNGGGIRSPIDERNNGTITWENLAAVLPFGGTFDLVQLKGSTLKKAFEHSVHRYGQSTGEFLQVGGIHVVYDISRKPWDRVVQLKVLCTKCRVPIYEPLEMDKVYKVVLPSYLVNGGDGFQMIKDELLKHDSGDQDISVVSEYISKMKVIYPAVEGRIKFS
TEST_SUMMARY: CD73 enzyme inhibition assay, soluble rat CD73
CONDITION_INFO: soluble recombinant rat CD73, Km 59 µM, substrate AMP (5 µM)
MEASURE_NAME: pKi
pKi here is simply -log10 of the concentration when that concentration is written in mol/L.

molecule CCCN(Cc1ccc(-c2cn(CCF)nn2)cc1)c1nc(Cl)nc2c1ncn2[C@@H]1O[C@H](COP(=O)(O)CP(=O)(O)O)[C@@H](O)[C@H]1O , pKi observed: 8.22

###

Catalogue of molecules with associated pKi
TARGET_UNDER_TEST: Soluble recombinant human CD73 (Homo sapiens)
Sequence (P21589 27-549 limits assumed): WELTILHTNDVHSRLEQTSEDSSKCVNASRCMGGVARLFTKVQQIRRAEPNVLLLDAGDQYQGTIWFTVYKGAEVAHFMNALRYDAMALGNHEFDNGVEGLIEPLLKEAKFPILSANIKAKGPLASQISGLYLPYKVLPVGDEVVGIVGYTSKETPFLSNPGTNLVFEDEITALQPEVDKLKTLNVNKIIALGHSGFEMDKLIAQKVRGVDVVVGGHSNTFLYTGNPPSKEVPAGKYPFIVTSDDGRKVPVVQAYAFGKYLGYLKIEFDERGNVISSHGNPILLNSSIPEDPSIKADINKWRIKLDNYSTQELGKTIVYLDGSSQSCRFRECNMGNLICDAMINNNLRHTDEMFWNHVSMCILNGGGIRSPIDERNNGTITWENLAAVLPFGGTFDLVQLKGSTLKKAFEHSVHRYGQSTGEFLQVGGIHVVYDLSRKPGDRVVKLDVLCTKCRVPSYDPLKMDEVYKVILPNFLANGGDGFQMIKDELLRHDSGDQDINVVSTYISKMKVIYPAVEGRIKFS
TEST_SUMMARY: CD73 enzyme inhibition assay, soluble recombinant human CD73
CONDITION_INFO: soluble recombinant human CD73, Km 17 µM, substrate AMP (5 µM)
// pKi: -log10(molar conc.)

// below: answered molecules
// sample Cn1c(=O)n([C@@H]2O[C@H](COP(=O)(O)CP(=O)(O)O)[C@@H](O)[C@H]2O)cc/c1=N/OCc1ccc(-c2cn(CCF)nn2)cc1 , its pKi was 9.18

In plain terms, CCCN(Cc1ccc(-c2cn(CC[18F])nn2)cc1)c1nc(Cl)nc2c1ncn2[C@@H]1O[C@H](COP(=O)(O)CP(=O)(O)O)[C@@H](O)[C@H]1O [[^18F]1] has a documented pKi of 8.99

Reported pKi ( Cn1c(=O)n([C@@H]2O[C@H](COP(=O)(O)CP(=O)(O)O)[C@@H](O)[C@H]2O)cc/c1=N/OCc1ccc(-c2cn(CC[18F])nn2)cc1 [[^18F]2] ) = 9.18

New cases:
Record summary for CCCN(Cc1ccc(-c2cn(CCF)nn2)cc1)c1nc(Cl)nc2c1ncn2[C@@H]1O[C@H](COP(=O)(O)CP(=O)(O)O)[C@@H](O)[C@H]1O : reported pKi = 8.99

###

TARGET_UNDER_TEST: Human membrane‐bound CD73 (membrane preparation of MDA‐MB‐231 cell line) (Homo sapiens)
Construct: endogenous in cells; host or cells: MDA-MB-231 (human triple-negative breast cancer) membrane preparation
Sequence (P21589 27-574): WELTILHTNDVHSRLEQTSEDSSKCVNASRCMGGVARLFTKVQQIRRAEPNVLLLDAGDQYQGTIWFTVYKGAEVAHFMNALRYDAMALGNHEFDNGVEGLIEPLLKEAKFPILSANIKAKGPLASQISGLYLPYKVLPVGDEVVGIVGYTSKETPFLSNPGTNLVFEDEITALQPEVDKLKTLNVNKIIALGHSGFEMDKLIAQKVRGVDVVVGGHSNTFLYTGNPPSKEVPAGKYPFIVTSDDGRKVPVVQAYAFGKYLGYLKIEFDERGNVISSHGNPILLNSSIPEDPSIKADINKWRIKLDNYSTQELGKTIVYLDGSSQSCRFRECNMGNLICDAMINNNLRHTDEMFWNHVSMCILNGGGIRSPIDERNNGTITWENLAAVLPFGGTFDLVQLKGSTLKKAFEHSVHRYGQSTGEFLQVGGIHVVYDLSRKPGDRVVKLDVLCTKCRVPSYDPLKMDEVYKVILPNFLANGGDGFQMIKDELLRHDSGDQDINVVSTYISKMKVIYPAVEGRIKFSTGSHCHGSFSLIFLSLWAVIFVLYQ
TEST_SUMMARY: CD73 enzyme inhibition assay, human membrane-bound CD73
Format: biochemical
CONDITION_INFO: membrane preparation of human TNBC MDA‐MB‐231 cell line, Km 14.8 µM, substrate AMP (5 µM)
MEASURE_NAME: pKi
Note: pKi values are expressed as the negative base-10 logarithm of concentration in M.

Known value: Human membrane‐bound CD73 (membrane preparation of MDA‐MB‐231 cell line) (Homo sapiens) pKi of the compound CCCN(Cc1ccc(-c2cn(CCF)nn2)cc1)c1nc(Cl)nc2c1ncn2[C@@H]1O[C@H](COP(=O)(O)CP(=O)(O)O)[C@@H](O)[C@H]1O [compound 1] equals 8.56
